ASSAYED TARGET: Polyunsaturated fatty acid 5-lipoxygenase (Rattus norvegicus)
Sequence (P12527 whole entry): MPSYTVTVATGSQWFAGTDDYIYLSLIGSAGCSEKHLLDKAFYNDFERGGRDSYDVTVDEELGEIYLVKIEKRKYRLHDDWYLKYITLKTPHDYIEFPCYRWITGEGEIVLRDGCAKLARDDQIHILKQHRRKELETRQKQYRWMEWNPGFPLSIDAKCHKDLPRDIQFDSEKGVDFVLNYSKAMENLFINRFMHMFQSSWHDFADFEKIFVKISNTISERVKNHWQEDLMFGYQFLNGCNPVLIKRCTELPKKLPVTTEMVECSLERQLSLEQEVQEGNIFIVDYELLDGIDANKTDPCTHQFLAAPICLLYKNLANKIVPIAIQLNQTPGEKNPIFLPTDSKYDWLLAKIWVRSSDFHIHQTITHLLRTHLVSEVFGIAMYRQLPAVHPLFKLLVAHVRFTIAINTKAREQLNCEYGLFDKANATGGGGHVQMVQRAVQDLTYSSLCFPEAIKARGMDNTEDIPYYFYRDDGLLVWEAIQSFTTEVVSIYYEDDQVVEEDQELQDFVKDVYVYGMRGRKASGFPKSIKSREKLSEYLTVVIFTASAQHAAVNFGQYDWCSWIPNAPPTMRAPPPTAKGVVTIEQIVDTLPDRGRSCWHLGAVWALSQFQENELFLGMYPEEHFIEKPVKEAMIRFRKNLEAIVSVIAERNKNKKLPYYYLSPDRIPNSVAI
MEASUREMENT DESCRIPTION: Ability to inhibit 5-lipoxygenase in rat basophilic leukemia cells.
PROPERTY MEASURED: IC50 (nM)

{"columns": ["MOLECULAR STRING", "ASSAYED TARGET", "IC50, nM"],
 "data": [
  ["CCCCCCCCOc1c(OC)c(OC)cc2oc(-c3ccc(O)c(O)c3)cc(=O)c12", "Polyunsaturated fatty acid 5-lipoxygenase (Rattus norvegicus)", 19],
  ["CCCCOc1c(OC)c(OC)cc2oc(-c3ccc(O)c(O)c3)cc(=O)c12", "Polyunsaturated fatty acid 5-lipoxygenase (Rattus norvegicus)", 45],
  ["COc1cc2oc(-c3ccc(O)c(O)c3)cc(=O)c2c(OCCC(C)C)c1OC", "Polyunsaturated fatty acid 5-lipoxygenase (Rattus norvegicus)", 16],
  ["CCCCCCCCCCCCCCOc1c(OC)c(OC)cc2oc(-c3ccc(O)c(O)c3)cc(=O)c12", "Polyunsaturated fatty acid 5-lipoxygenase (Rattus norvegicus)", 28],
  ["CCCCCCCCCCCCOc1c(OC)cc2oc(-c3ccc(O)c(O)c3)cc(=O)c2c1O", "Polyunsaturated fatty acid 5-lipoxygenase (Rattus norvegicus)", 26]
]}

(I) CCCCOc1c(OC)cc2oc(-c3ccc(O)c(O)c3)cc(=O)c2c1OC
(II) CCCCCCCCCCCCCCOc1c(OC)cc2oc(-c3ccc(OC(C)=O)c(OC(C)=O)c3)cc(=O)c2c1OC
(III) COc1cc(OC)c2c(=O)cc(-c3ccc(O)c(O)c3)oc2c1OC
Hey, can you sort those compounds up there by IC50, smallest first? Reply: labels, ordered per the request. I, III, II

(A) CCCCCCCCCCCCCCOc1c(OC)cc2oc(-c3ccc(O)c(O)c3)cc(=O)c2c1OC
(B) CCCCCCCCCCCCCCOc1c(OC)cc2oc(-c3ccc(O)c(O)c3)cc(=O)c2c1O
(C) CCCCOc1c(OC)cc2oc(-c3ccc(OC(C)=O)c(OC(C)=O)c3)cc(=O)c2c1OC
With regard to IC50, arrange the entries in ascending order, please. # respond with the labels, arranged in the requested order A, C, B

(P) CCCCCCCCCCCCOc1c(OC)cc(OC)c2c(=O)cc(-c3ccc(O)c(O)c3)oc12
(Q) CCCCCCCCCCCCOc1cc(OC)c(OC)c2oc(-c3ccc(O)c(O)c3)cc(=O)c12
Which entry shows the lesser value of IC50 here, P or Q ? Lab note: record the label of whichever item you select. Q
(Q: 22 nM, P: 110 nM)
